tested_system: Sorbitol dehydrogenase (Rattus norvegicus, UniProt P27867)
Sequence (P27867 whole entry): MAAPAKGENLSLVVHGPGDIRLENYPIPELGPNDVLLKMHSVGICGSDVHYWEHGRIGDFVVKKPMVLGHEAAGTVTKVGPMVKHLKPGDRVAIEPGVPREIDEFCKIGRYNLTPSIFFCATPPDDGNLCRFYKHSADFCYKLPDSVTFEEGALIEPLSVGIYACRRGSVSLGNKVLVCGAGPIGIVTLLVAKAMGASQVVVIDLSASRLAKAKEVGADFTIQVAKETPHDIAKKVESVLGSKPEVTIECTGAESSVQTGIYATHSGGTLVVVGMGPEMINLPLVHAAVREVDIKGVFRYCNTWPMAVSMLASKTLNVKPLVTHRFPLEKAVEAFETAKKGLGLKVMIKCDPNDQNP
method: Inhibition of recombinant rat sorbitol dehydrogenase
Lab note - cut at 30 nM for IC50: 1 if strictly below, -1 if not.

compound	tested_system	cat
C[C@@H]1CN(c2ccnc([C@@H](C)O)n2)C[C@H](C)N1c1ccnc([C@@H](C)O)n1	Sorbitol dehydrogenase (Rattus norvegicus, UniProt P27867)	1
CC(=O)c1nccc(N2C[C@@H](C)N(c3ccnc([C@@H](C)O)n3)[C@@H](C)C2)n1	Sorbitol dehydrogenase (Rattus norvegicus, UniProt P27867)	1
CC(=O)c1nccc(N2[C@H](C)CN(c3ccnc([C@@H](C)O)n3)C[C@@H]2C)n1	Sorbitol dehydrogenase (Rattus norvegicus, UniProt P27867)	1
C[C@H](O)c1nccc(N2C[C@@H](C)N(c3ccnc([C@@H](C)O)n3)[C@@H](C)C2)n1	Sorbitol dehydrogenase (Rattus norvegicus, UniProt P27867)	1
CC(=O)c1nccc(N2C[C@@H](C)N(c3ccnc(C(C)=O)n3)[C@@H](C)C2)n1	Sorbitol dehydrogenase (Rattus norvegicus, UniProt P27867)	-1

====

tested_system: Sorbitol dehydrogenase (Rattus norvegicus)
method: Inhibition of recombinant rat Sorbitol dehydrogenase
pIC50: −log10 of the molar value.
observed_property: pIC50

molecule	result_value
C[C@H](O)c1nccc(N2C[C@@H](C)N(c3ccnc([C@H](C)O)n3)[C@@H](C)C2)n1	6.19
CC(O)c1nccc(N2C[C@@H](C)N(c3ccnc(C(C)O)n3)[C@@H](C)C2)n1 (stereo partly drawn)	8.10
C[C@H](O)c1nccc(N2[C@H](C)CN(c3ccnc([C@@H](C)O)n3)C[C@@H]2C)n1	7.57
